assay: membrane permeability on the Caco-2 cell model; assay type: in vitro ADME; details: human; Caco-2 cell model (Gres et al.); read-out: membrane permeability coefficient
Value Kind: Papp (×10⁻⁶ cm/s)

[
  {
    "Smiles Record": "Cc1c(C(=O)NN2CCCCC2)nn(-c2ccc(Cl)cc2Cl)c1-c1ccc(Cl)cc1",
    "Papp, ×10⁻⁶ cm/s": 7.8
  },
  {
    "Smiles Record": "CCc1c(C(=O)NN2CCCCC2)nn(-c2ccc(Cl)cc2Cl)c1-c1ccc(Br)cc1",
    "Papp, ×10⁻⁶ cm/s": 9.6
  }
]

* * *

test: comparative tests on intrinsic dissolution; format: physicochemical; details: Acetonitrile/H2O (60/40), 500 ml, 37° C., 75 revolutions/minute, pellets 0.5 cm^2, UV at 246 nm
Value Kind: rate of intrinsic dissolution (mg.min^−1.cm^−2)

See these solved cases before continuing.
[
  {
    "Compound": "CCc1c(C(=O)NN2CCCCC2)nn(-c2ccc(Cl)cc2Cl)c1-c1ccc(Br)cc1 [crystalline surinabant]",
    "Observed Result": 0.2
  },
  {
    "Compound": "Cc1c(C(=O)NN2CCCCC2)nn(-c2ccc(Cl)cc2Cl)c1-c1ccc(Cl)cc1 [crystalline rimonabant]",
    "Observed Result": 0.7
  }
]

a: CCc1c(C(=O)NN2CCCCC2)nn(-c2ccc(Cl)cc2Cl)c1-c1ccc(Br)cc1 [amorphous surinabant]
b: Cc1c(C(=O)NN2CCCCC2)nn(-c2ccc(Cl)cc2Cl)c1-c1ccc(Cl)cc1 [amorphous rimonabant]
I'd appreciate it if you could identify which of a and b has the greater rate of intrinsic dissolution. Returns: label corresponding to the selected item.
b
(b: 1.3 mg.min^−1.cm^−2, a: 0.85 mg.min^−1.cm^−2)
